Test: yeast display, Sf9 membrane polyspecificity reagent, FACS + sequencing; frameworks hold sequencing errors
endpoint: polyreactivity (PSR sort gate)

Reference set (4 entries):
>  <residues>
QVQLVESGGGLVQAGGSLRLSCAASGNTFWFYRMGWYRQAPGKERELVAAITSGGSTDYADSVKGRFTISRDNAKNTVYLQMNSLKPEDTAVYYCAAEPVAYYGSSYGYWGQGTQVTVSS

>  <polyreactivity (PSR sort gate)>
low polyreactivity

$$$$
>  <residues>
QVQLVESGGGLVHAGGSLRLSCAASGFTFEYNAMGWYRQAPGKERELVAVITYRGGSTYYADSVKGRFTISRDNAKHTVYLQMNSLKPEDTAVYYCAADSVTYGGDYWGQGTQVTVSS

>  <polyreactivity (PSR sort gate)>
high polyreactivity

$$$$
>  <residues>
QVQLVESLGGLVQAGGSLRLSCAASGFTFTNYAMGWYRQAPGKERELVAAINSSGSTNYADSVKGRFTISRDNAKNTVYLQMNSLKPEDTAVYYCAVDYSYWVHGFWDDYDYWGQGTQVTVSS

>  <polyreactivity (PSR sort gate)>
low polyreactivity

$$$$
>  <residues>
QVQLVESGGGLVHAGGSHRLSCAASGFSFKSYAMGWYRQAPGKERELVAAISRRCGSTNYADSVKGRFTISRDNAKNTVYLQMNSLKPEDTAVYYCNADPYNSPYQVSGPYKEDYDYWGQGTQVTVSS

>  <polyreactivity (PSR sort gate)>
high polyreactivity

$$$$

QUERY: For the sequence QVQLVESGGVLVQAGGSLRLSCAASGRIFQTYAMGWYRQAPGKERELVAAISSRGRTYYADSVKGRFTISRDNAKITVYLQMNSLKREDTAVYYCAARDWSHRPRGYDYWGQGTQVTVSS , what polyreactivity (PSR sort gate) is on record?
RESULT: high polyreactivity

From: the nanobody polyreactivity screen of Harvey et al. (2022)
